Experiment: Thermogravimetric analysis (TGA), thermal stability
Assay type: physicochemical
Conditions: temperature at highest degradation rate, 10 °C min^−1, N2 atmosphere
Listed here: items and their measured Tpeak.
Kindly answer with a numeric value in °C, unit omitted.

COc1c(N2C[C@@H]3CCCN[C@@H]3C2)c(F)cc2c(=O)c(C(=O)O)cn(C3CC3)c12.O=S(=O)(NS(=O)(=O)C(F)(F)F)C(F)(F)F [[Mox][NTF2]]	327.51
COc1c(N2C[C@@H]3CCCN[C@@H]3C2)c(F)cc2c(=O)c(C(=O)O)cn(C3CC3)c12.O=S(=O)(NS(=O)(=O)C(F)(F)C(F)(F)F)C(F)(F)C(F)(F)F [[Mox][BETI]]	322.97
COc1c(N2C[C@@H]3CCCN[C@@H]3C2)c(F)cc2c(=O)c(C(=O)O)cn(C3CC3)c12.C[C@H](CCC(=O)O)[C@H]1CC[C@H]2[C@@H]3CC[C@@H]4C[C@H](O)CC[C@]4(C)[C@H]3C[C@H](O)[C@]12C [[Mox][Dxc]]	284.97

Tell me the measured Tpeak of CCCCC(CC)COC(=O)CC(C(=O)OCC(CC)CCCC)S(=O)(=O)O.COc1c(N2C[C@@H]3CCCN[C@@H]3C2)c(F)cc2c(=O)c(C(=O)O)cn(C3CC3)c12 [[Mox][Doc]] , please.
275.90
